- Test system: CCRIS mutagenicity, Ames/micronucleus/aberration tests
- experimental details: CCRIS mutagenicity studies
- measurement setup: Test System: AMES SALMONELLA TYPHIMURIUM; Strain/Indicator: TA100; Metabolic Activation: NONE; Method: STANDARD PLATE
Calls of active or inactive are those of the source. How the calls were made is not given here.
metric: mutagenic call

Worked cases, answers included:
1. CCC(=O)Nc1snc2ccc(C)cc12	inactive; negative
2. C=C(C)C(=O)OCCCCOC(=O)C(=C)C	inactive; negative
3. O=C([O-])c1cccnc1Nc1cccc(C(F)(F)F)c1.O=C([O-])c1cccnc1Nc1cccc(C(F)(F)F)c1.OCc1cccnc1.OCc1cccnc1.[Cu+2]	inactive; negative
4. c1ccc(COC[C@H]2CO2)cc1	active; positive
5. c1ccc(C(c2ccccc2)c2ccccc2)cc1	inactive; negative

// recorded mutagenic call for O=C(CCl)Nc1snc2ccccc12 : inactive; negative

// recorded mutagenic call for O=C(Cn1ccnc1[N+](=O)[O-])NCc1ccccc1 : active; positive

// recorded mutagenic call for Cl[Si](Cl)(Cl)Cl : inactive; negative

// recorded mutagenic call for N.N.O=C([O-])C1(C(=O)[O-])CCC1.[Pt+4] : inactive; negative

// recorded mutagenic call for C[C@@H]1O[C@@H](O[C@H]2C[C@](O)(C(=O)CO)Cc3c(O)c4c(c(O)c32)C(=O)c2ccccc2C4=O)C[C@H](N)[C@@H]1O : active; positive

// recorded mutagenic call for O=C(O)COc1cc(Cl)c(Cl)cc1Cl : inactive; negative

// recorded mutagenic call for O=C1OC(O)C(CBr)=C1Br (stereo not drawn) : active; positive

###

- Tested on: CCRIS mutagenicity, Ames/micronucleus/aberration tests
- experimental details: CCRIS mutagenicity studies
- measurement setup: Test System: AMES SALMONELLA TYPHIMURIUM; Strain/Indicator: TA1537; Metabolic Activation: NONE; Method: PREINCUBATION
Calls of active or inactive are those of the source. How the calls were made is not given here.
metric: mutagenic call

Worked cases, answers included:
1) C=CC(=O)NCO	inactive; negative
2) ClCCOCCCl	inactive; negative
3) COC1=CC(=O)C[C@@H](C)[C@]12Oc1c(Cl)c(OC)cc(OC)c1C2=O	inactive; negative
4) Cc1cccc(O)c1C	inactive; negative

Please examine the following record next.
// recorded mutagenic call for CC(N)Cc1ccccc1 (stereo unspecified) : inactive; negative

###

- Test system: CCRIS mutagenicity, Ames/micronucleus/aberration tests
- experimental details: CCRIS mutagenicity studies
- measurement setup: Test System: AMES SALMONELLA TYPHIMURIUM; Strain/Indicator: TA1538; Metabolic Activation: NONE; Method: PREINCUBATION
Active and inactive are the calls of the source. The rule behind the calls is not given here.
Your reply should match one of these outcome classes. 1.0 (active), 0.0 (inactive)

See these solved cases before continuing.
1. C[C@]12CCC(=O)C=C1[C@@H]1C[C@@H]1[C@H]1[C@@H]3[C@@H]4C[C@@H]4[C@@]4(CCC(=O)O4)[C@@]3(C)CC[C@@H]12	0.0
2. C[C@]12CC[C@@H]3c4ccc(O)cc4CC[C@H]3[C@@]13CC[C@]2(O)[C@H](O)C3	0.0
3. O=C(O)Cc1ccccc1[N+](=O)[O-]	1.0
4. Nc1ccc2c(N)c3ccccc3nc2c1	1.0
5. c1ccc2nc3ccccc3cc2c1	0.0
6. CSC(C)(C)C(=O)N[C@@H](CS)C(=O)O	0.0

Q. Look up the recorded call for C[C@@H]1Cc2c(Cl)cc(C(=O)NC(Cc3ccccc3)C(=O)O)c(O)c2C(=O)O1 (some centres undefined) in this test.
A. 0.0

Q. Look up the recorded call for CCN(CC)c1ccc(N=O)c(O)c1 in this test.
A. 0.0

Q. Look up the recorded call for O=c1[nH]c(=O)n([C@H]2C[C@H](O)[C@@H](CO)O2)cc1CCCCl in this test.
A. 0.0

###

- Test system: CCRIS mutagenicity, Ames/micronucleus/aberration tests
- experimental details: CCRIS mutagenicity studies
- measurement setup: Test System: AMES SALMONELLA TYPHIMURIUM; Strain/Indicator: TA100; Metabolic Activation: NONE; Method: PREINCUBATION
Active and inactive are the calls of the source. The rule behind the calls is not given here.
Your reply should match one of these outcome classes. YES = active, NO = inactive

Q. Look up the recorded call for CC(C)(C#N)N=NC(C)(C)C#N in this test.
A. NO

###

- System: CCRIS mutagenicity, Ames/micronucleus/aberration tests
- experimental details: CCRIS mutagenicity studies
- measurement setup: Test System: AMES SALMONELLA TYPHIMURIUM; Strain/Indicator: TA98; Metabolic Activation: NONE; Method: PREINCUBATION
The source made the active and inactive calls. How the calls were made is not given here.
Your reply should match one of these outcome classes. active, inactive

1. COP(=O)(OC)C(O)C(Cl)(Cl)Cl (stereo not drawn)	inactive

Q. Look up the recorded call for [Na+] in this test.
A. inactive

Q. Look up the recorded call for CCCCCCCCCC in this test.
A. inactive

Q. Look up the recorded call for CC(C)(C)OO in this test.
A. inactive

Q. Look up the recorded call for CCCCCNCCCCC in this test.
A. inactive

###

- System: CCRIS mutagenicity, Ames/micronucleus/aberration tests
- experimental details: CCRIS mutagenicity studies
- measurement setup: Test System: MOUSE LYMPHOMA; Strain/Indicator: L5178Y (TK+/TK-); Metabolic Activation: NONE; Method: SUSPENSION/PLATE
Active and inactive are the calls of the source. The rule behind the calls is not given here.
Your reply should match one of these outcome classes. TRUE for active, FALSE for inactive

Q. Look up the recorded call for C=CCO in this test.
A. TRUE

Q. Look up the recorded call for C=Cc1ccc(N)cc1 in this test.
A. FALSE

Q. Look up the recorded call for CC1=Nc2ccccc2C1(C)C in this test.
A. FALSE

Q. Look up the recorded call for C=CC[Si](C)(C)C in this test.
A. FALSE

Q. Look up the recorded call for CCC/C=N/O in this test.
A. TRUE

Q. Look up the recorded call for CCCCCON=O in this test.
A. FALSE

Q. Look up the recorded call for CCCCCCCCCCCC(=O)OOC(=O)CCCCCCCCCCC in this test.
A. FALSE

Q. Look up the recorded call for CC(=O)OC(C)=O in this test.
A. FALSE

Q. Look up the recorded call for CCCCB(CCCC)CCCC in this test.
A. FALSE

Q. Look up the recorded call for O=C(O)CCc1ccccc1 in this test.
A. FALSE

Q. Look up the recorded call for CCCCCCCCC=O in this test.
A. FALSE

###

- Test system: CCRIS mutagenicity, Ames/micronucleus/aberration tests
- experimental details: CCRIS mutagenicity studies
- measurement setup: Test System: AMES SALMONELLA TYPHIMURIUM; Strain/Indicator: TA98; Metabolic Activation: NONE; Method: PREINCUBATION
Calls of active or inactive are those of the source. No rule for the calls is given here.
Your reply should match one of these outcome classes. yes (1) for active, no (0) for inactive

1. CCCCOC(=O)C=Cc1ccc([N+](=O)[O-])o1	yes (1)
2. O=C(O)c1ccccc1	no (0)
3. N.N.O=C([O-])C1(C(=O)[O-])CCC1.[Pt+4]	no (0)

# input for lookup
Q. Look up the recorded call for Nc1ncnc2nc(-c3ccc([N+](=O)[O-])cc3)[nH]c12 in this test.
A. yes (1)

###

- Test system: CCRIS mutagenicity, Ames/micronucleus/aberration tests
- experimental details: CCRIS mutagenicity studies
- measurement setup: Test System: AMES SALMONELLA TYPHIMURIUM; Strain/Indicator: TA100; Metabolic Activation: NONE; Method: PREINCUBATION
Activity calls are given as the source filed them. The rule behind the calls is not given here.
metric: mutagenic call

Worked cases, answers included:
1. CCC(=O)C(C)=O	inactive; negative
2. CC1=C(O)C(=O)C(O)CO1 (stereo not drawn)	active; positive
3. NNC(=O)c1[nH]c2ccccc2c1N	inactive; negative
4. CN(C)CCC(c1ccccc1)c1ccccn1 (stereo not drawn)	inactive; negative
5. CCCCOc1ccc(C=Nc2ccc(CC)cc2)cc1	inactive; negative

Test item N.N.[Br-].[Br-].[Pt+2] ; CCRIS mutagenicity, Ames/micronucleus/aberration tests; reported mutagenic call was active; positive

Test item NC(=O)c1cnccn1 ; CCRIS mutagenicity, Ames/micronucleus/aberration tests; reported mutagenic call was inactive; negative

Test item O=C1CCCO1 ; CCRIS mutagenicity, Ames/micronucleus/aberration tests; reported mutagenic call was inactive; negative

Test item ClC[C@@]1(C(Cl)Cl)C2[C@@H](Cl)[C@H](Cl)C1(C(Cl)Cl)[C@@H](Cl)[C@@H]2Cl ; CCRIS mutagenicity, Ames/micronucleus/aberration tests; reported mutagenic call was inactive; negative

###

- Tested on: CCRIS mutagenicity, Ames/micronucleus/aberration tests
- experimental details: CCRIS mutagenicity studies
- measurement setup: Test System: AMES SALMONELLA TYPHIMURIUM; Strain/Indicator: TA102; Metabolic Activation: NONE; Method: STANDARD PLATE
The source made the active and inactive calls. The rule behind the calls is not given here.
Your reply should match one of these outcome classes. 1 for active, -1 for inactive

1. COCC(=O)O	-1
2. O=C(OCC1CCC2OC2C1)C1CCC2OC2C1 (stereo unspecified)	-1
3. O=C1c2cccc(O)c2C(=O)c2c(O)cccc21	-1

Q. Look up the recorded call for CN1C(=O)[C@]23CC4=CC=C[C@H](O)[C@H]4N2C(=O)[C@@]1(CO)SS3 in this test.
A. -1

Q. Look up the recorded call for COC(=O)COc1ccc(Cl)cc1Cl in this test.
A. -1
